The measurements presented in this section are drawn from paper PMC6331850.

Provide the reported inhibition at 25 µg/mL of each item.
Test system: SF-295 (glioblastoma)
Assay: MTT cytotoxicity assay, SF-295
Type: cell-based
Details: Homo sapiens, 25 μg/mL, 72 h incubation, mean of three independent experiments, read-out: Cell growth inhibition percentage, SF-295 IG%
One number for each entry, in %.

Some solved cases for reference:
C=C(C)[C@H]1CC=C(C)C(=O)C1 [Compound 2, (+)-Carvone] = 34.4
CC1=CC[C@@H](C(C)(C)O)CC1O (single isomer, unassigned; (-)) [Compound 13, (−)-Sobrerol] = 34.2
CC(C)=C1CC[C@@H](C)CC1=O [Compound 9, (+)-Pulegone] = 27.4

Continue with the compound presented below.
Input: Please report the recorded inhibition at 25 µg/mL for C=C(C)[C@@H]1CC=C(C)C(=O)C1 [Compound 1, (−)-Carvone] .
Output: 12.3

---

System: HCT-116 (colon carcinoma)
Test: MTT cytotoxicity assay, HCT-116
Type: cell-based
Settings: Homo sapiens, 25 μg/mL, 72 h incubation, mean of three independent experiments, read-out: Cell growth inhibition percentage, HCT-116 IG%
Decide using inhibition at 25 µg/mL: a value greater than or equal to 40% is fulfilled, a smaller one is not fulfilled.

CC1([C@@H]2CC=C(C=O)CC2)CO1 (single isomer, unassigned; (-)) [Compound 16, (−)-Perillaldehyde 8,9-epoxide] = fulfilled

Input: # bool: inhibition at 25 µg/mL of CC(=O)OC(C)(C)[C@@H]1CC=C(C)C(=O)C1 [Compound 8, (−)-8-Acetoxycarvotanacetone] >= 40%
Output: not fulfilled

Input: # bool: inhibition at 25 µg/mL of C=C(C)[C@@H]1C[C@H](O)[C@]2(C)O[C@@H]2C1 [Compound 6, (+)-Carveol epoxide] >= 40%
Output: not fulfilled

Input: # bool: inhibition at 25 µg/mL of CC1=CC[C@@H](C(C)(C)O)CC1=O [Compound 3, (−)-8-Hydroxycarvotanacetone] >= 40%
Output: fulfilled

Input: # bool: inhibition at 25 µg/mL of C=C(C)[C@@H]1CCC2(C)OC2C1 (single isomer, unassigned; (+)) [Compound 12, (+)-Limonene 1,2-epoxide] >= 40%
Output: fulfilled

Input: # bool: inhibition at 25 µg/mL of COc1cccc2c1C(=O)c1c(O)c3c(c(O)c1C2=O)C[C@@](O)(C(=O)CO)C[C@@H]3O[C@H]1C[C@H](N)[C@H](O)[C@H](C)O1 [Doxorubicin, reference compound] >= 40%
Output: fulfilled

Input: # bool: inhibition at 25 µg/mL of C=C(C)[C@@H]1CC(=O)[C@@]2(C)O[C@H]2C1 [Compound 5, (−)-Carvone epoxide] >= 40%
Output: not fulfilled

Input: # bool: inhibition at 25 µg/mL of C=C(C)[C@@H]1CC=C(C)C(=O)C1 [Compound 1, (−)-Carvone] >= 40%
Output: not fulfilled

Input: # bool: inhibition at 25 µg/mL of C=C(C)[C@@H]1CC=C(COC(=O)c2ccccc2)CC1 [Compound 18, (S)-perillyl benzoate] >= 40%
Output: not fulfilled

Input: # bool: inhibition at 25 µg/mL of C=C(C)[C@@H]1CC=C(CO)CC1 [Compound 14, (S)-(−)-perillyl alcohol] >= 40%
Output: fulfilled

Input: # bool: inhibition at 25 µg/mL of C=C(C)[C@H]1CC=C(C)C(=O)C1 [Compound 2, (+)-Carvone] >= 40%
Output: fulfilled

---

Test system: SF-295 (glioblastoma)
Assay: MTT cytotoxicity assay, SF-295
Assay type: cell-based
Conditions: Homo sapiens, 25 μg/mL, 72 h incubation, mean of three independent experiments, read-out: Cell growth inhibition percentage, SF-295 IG%
Decide using inhibition at 25 µg/mL: a value greater than or equal to 60% is fulfilled, a smaller one is not fulfilled.

Please review the entries below; each comes with its answer.
C=C(C)[C@@H]1CC[C@@H](C)CC1=O [Compound 11, (−)-trans-isopulegone] = not fulfilled
C=C(C)[C@@H]1CC(=O)[C@@]2(C)O[C@H]2C1 [Compound 5, (−)-Carvone epoxide] = not fulfilled
C[C@@H]1CCC2(OC2(C)C)C(=O)C1 (stereo partly drawn) [Compound 10, (R)-pulegone oxide] = not fulfilled
C=C(C)[C@@H]1CC=C(CO)CC1 [Compound 14, (S)-(−)-perillyl alcohol] = fulfilled
C=C(C)[C@@H]1CC=C(C)[C@H](O)C1 [Compound 7, (−)-cis-carveol] = not fulfilled
C=C(C)[C@@H]1C[C@H](O)[C@]2(C)O[C@@H]2C1 [Compound 6, (+)-Carveol epoxide] = not fulfilled
CC(=O)OC(C)(C)[C@@H]1CC=C(C)C(=O)C1 [Compound 8, (−)-8-Acetoxycarvotanacetone] = not fulfilled
COc1cccc2c1C(=O)c1c(O)c3c(c(O)c1C2=O)C[C@@](O)(C(=O)CO)C[C@@H]3O[C@H]1C[C@H](N)[C@H](O)[C@H](C)O1 [Doxorubicin, reference compound] = fulfilled
C=C(C)[C@@H]1CC=C(COC(=O)c2ccccc2)CC1 [Compound 18, (S)-perillyl benzoate] = not fulfilled
C=C(C)[C@@H]1CC=C(COC(C)=O)CC1 [Compound 17, (−)-Perillyl acetate] = not fulfilled

Input: # bool: inhibition at 25 µg/mL of CC1([C@@H]2CC=C(C=O)CC2)CO1 (single isomer, unassigned; (-)) [Compound 16, (−)-Perillaldehyde 8,9-epoxide] >= 60%
Output: fulfilled

Input: # bool: inhibition at 25 µg/mL of CC1=CC[C@H](C(C)(C)O)CC1=O [Compound 4, (+)-8-Hydroxycarvotanacetone] >= 60%
Output: not fulfilled

---

System: HCT-116 (colon carcinoma)
Test: MTT cytotoxicity assay, HCT-116
Format: cell-based
Details: Homo sapiens, 25 μg/mL, 72 h incubation, mean of three independent experiments, read-out: Cell growth inhibition percentage, HCT-116 IG%
Decide using inhibition at 25 µg/mL: a value greater than or equal to 20% is Satisfied, a smaller one is Not satisfied.

Please review the entries below; each comes with its answer.
C=C(C)[C@@H]1CC[C@@H](C)CC1=O [Compound 11, (−)-trans-isopulegone] = Not satisfied
CC1=CC[C@H](C(C)(C)O)CC1=O [Compound 4, (+)-8-Hydroxycarvotanacetone] = Not satisfied
C[C@@H]1CCC2(OC2(C)C)C(=O)C1 (stereo partly drawn) [Compound 10, (R)-pulegone oxide] = Satisfied
C=C(C)[C@@H]1CC=C(C=O)CC1 [Compound 15, (−)-Perillaldehyde] = Satisfied

Input: # bool: inhibition at 25 µg/mL of CC(C)=C1CC[C@@H](C)CC1=O [Compound 9, (+)-Pulegone] >= 20%
Output: Not satisfied

Input: # bool: inhibition at 25 µg/mL of C=C(C)[C@@H]1CC=C(COC(C)=O)CC1 [Compound 17, (−)-Perillyl acetate] >= 20%
Output: Not satisfied

Input: # bool: inhibition at 25 µg/mL of C=C(C)[C@@H]1CC=C(C)[C@H](O)C1 [Compound 7, (−)-cis-carveol] >= 20%
Output: Not satisfied

Input: # bool: inhibition at 25 µg/mL of CC1=CC[C@@H](C(C)(C)O)CC1O (single isomer, unassigned; (-)) [Compound 13, (−)-Sobrerol] >= 20%
Output: Not satisfied

---

Test system: SF-295 (glioblastoma)
Assay: MTT cytotoxicity assay, SF-295
Assay type: cell-based
Conditions: Homo sapiens, 25 μg/mL, 72 h incubation, mean of three independent experiments, read-out: Cell growth inhibition percentage, SF-295 IG%
REPORTED_ENDPOINT: inhibition at 25 µg/mL

Some solved cases for reference:
CC1=CC[C@@H](C(C)(C)O)CC1=O [Compound 3, (−)-8-Hydroxycarvotanacetone] = 61.6%
C=C(C)[C@@H]1CC=C(C=O)CC1 [Compound 15, (−)-Perillaldehyde] = 59.3%

Continue with the compound presented below.
Input: Please report the recorded inhibition at 25 µg/mL for C=C(C)[C@@H]1CCC2(C)OC2C1 (single isomer, unassigned; (+)) [Compound 12, (+)-Limonene 1,2-epoxide] .
Output: 58.5%
